Please respond with reported log10(IC50) for every item in the list.
molecular target: p-Akt2 in WM115 cells (Homo sapiens, UniProt P31751); construct: SureFire assays to detect cellular p-Akt1, p-Akt2 and p-Akt3 levels in WM115 cells (Akt2/3) and LNCaP cells (Akt1); endogenous in cells; host or cells: WM115 (ECACC 91061232), insulin-stimulated; assay: Phospho-Akt cellular SureFire assay, p-Akt2 in WM115 cells; format: cell-based; conditions: insulin stimulated, read-out: Biological Assay 2 IC50 (nM) Akt2 WM115
Sequence (P31751 whole entry): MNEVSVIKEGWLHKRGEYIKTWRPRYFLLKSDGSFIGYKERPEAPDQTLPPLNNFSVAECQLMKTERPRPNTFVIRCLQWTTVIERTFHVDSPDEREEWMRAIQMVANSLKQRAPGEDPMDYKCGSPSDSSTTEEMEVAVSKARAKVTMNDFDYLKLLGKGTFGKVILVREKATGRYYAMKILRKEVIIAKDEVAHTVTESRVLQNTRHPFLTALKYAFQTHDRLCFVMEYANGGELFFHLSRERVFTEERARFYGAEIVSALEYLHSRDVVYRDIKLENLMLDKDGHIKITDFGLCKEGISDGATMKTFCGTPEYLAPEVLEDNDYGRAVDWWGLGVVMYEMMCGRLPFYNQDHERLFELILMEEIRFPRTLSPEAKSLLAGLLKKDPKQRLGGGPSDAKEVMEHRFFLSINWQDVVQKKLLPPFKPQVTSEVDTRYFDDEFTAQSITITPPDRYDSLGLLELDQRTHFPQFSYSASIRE
Please note: log10 values; quantity IC50; unit nM.

Some solved entries appear below for comparison.
SMILES NOTATION	log10(IC50)
CN(C(=O)C1CC1)[C@H]1CC[C@H](CC(=O)Nc2cnc(-c3ccc(C(C)(C)N)cc3)c(-c3ccccc3)c2)CC1	3.76
CN(C(=O)C1CC1)[C@H]1CC[C@H](CC(=O)Nc2cc(-c3ccccc3)c(-c3ccc(C4(N)CC4)cc3)nn2)CC1	3.52
CC(C)(N)c1ccc(-c2ncc(NC(=O)C[C@H]3CC[C@H](C(=O)N4CCOCC4)CC3)cc2-c2ccccc2)cc1	3.80
CC(=O)N(C)[C@H]1CC[C@H](CC(=O)Nc2cc(-c3ccccc3)c(-c3ccc([C@]4(N)C[C@H](F)C4)cc3)nn2)CC1	3.41

Query string: Looking for the measured log10(IC50) of C[C@]1(O)C[C@@](N)(c2ccc(-c3cnc(NC(=O)C[C@H]4CC[C@H](N5CCCC5=O)CC4)cc3-c3ccccc3)cc2)C1 , can you help?
Result string: 2.66

====

biological target: Akt2 (Homo sapiens); construct: unspecified tag, removed (detagged) (cleaved yes); purchased SignalChem and Proteros (Akt2); Merck Millipore (PDK1) 14-452 (PDK1); none given for Akt2; test: Akt activation assay (PDK1-mediated activation, LANCE Ultra crosstide TR-FRET), Akt2; type: biochemical; settings: read-out: Biological Assay 1 IC50 (nM) Akt2
Threshold 400 nM. IC50 below it: satisfied. IC50 at it or above: not satisfied.

COMPOUND	ASSIGNED LABEL
COC(=O)N(C)C1CCC(CC(=O)Nc2cnc(-c3ccc(C4(N)CC(F)C4)cc3)c(-c3ccsc3)c2)CC1 (centres unmarked)	not satisfied
COC(=O)N(C)[C@H]1CC[C@H](CC(=O)Nc2cc(-c3ccccc3F)c(-c3ccc(C4(N)CCC4)cc3)cn2)CC1	not satisfied
CC(=O)N[C@H]1CC[C@H](CC(=O)Nc2cnc(-c3ccc([C@]4(N)C[C@@H](O)C4)cc3)c(-c3ccccc3)c2)CC1	not satisfied
NC1(c2ccc(-c3ncc(NC(=O)C[C@H]4CC[C@H](N5CCOCC5)CC4)cc3-c3ccccc3)cc2)CC(F)(F)C1	not satisfied
COC(=O)N[C@H]1CC[C@H](CC(=O)Nc2cnc(-c3ccc(C4(N)CC(F)(F)C4)cc3)c(-c3ccccc3)c2)CC1	not satisfied

Query string: Is it true that IC50 reported for CC(=O)N(C)[C@H]1CC[C@H](CC(=O)Nc2cnc(-c3ccc(C(C)(C)N)cc3)c(-c3ccccc3)c2)CC1 is less than 400 nM?
Result string: not satisfied

Query string: Is it true that IC50 reported for N[C@]1(c2ccc(-c3nnc(NC(=O)C[C@H]4CC[C@H](N5CCOC5=O)CC4)cc3-c3ccsc3)cc2)C[C@@H](F)C1 is less than 400 nM?
Result string: not satisfied

Query string: Is it true that IC50 reported for CCC(=O)N(C)[C@H]1CC[C@H](CC(=O)Nc2cc(-c3ccccc3)c(-c3ccc([C@]4(N)C[C@](C)(O)C4)c(F)c3)cn2)CC1 is less than 400 nM?
Result string: not satisfied

Query string: Is it true that IC50 reported for CN(C(=O)C1CC1)[C@H]1CC[C@H](CC(=O)Nc2cc(-c3ccccc3)c(-c3ccc([C@]4(N)C[C@](C)(O)C4)cc3)cn2)CC1 is less than 400 nM?
Result string: satisfied

Query string: Is it true that IC50 reported for CC(=O)N(C)[C@H]1CC[C@H](CC(=O)Nc2cnc(-c3ccc(C4(N)CC4)cc3)c(-c3ccccc3)c2)CC1 is less than 400 nM?
Result string: not satisfied

====

molecular target: p-Akt2 in WM115 cells (Homo sapiens); construct: SureFire assays to detect cellular p-Akt1, p-Akt2 and p-Akt3 levels in WM115 cells (Akt2/3) and LNCaP cells (Akt1); endogenous in cells; host or cells: WM115 (ECACC 91061232), insulin-stimulated; test: Phospho-Akt cellular SureFire assay, p-Akt2 in WM115 cells; type: cell-based; settings: insulin stimulated, read-out: Biological Assay 2 IC50 (nM) Akt2 WM115
Please respond with reported IC50 for every item in the list.
Answers are plain numbers, in nM.

COMPOUND	PARAMETER	ENDPOINT VALUE
NC1(c2ccc(-c3ncc(NC(=O)C(F)C4CCN(S(=O)(=O)C5CC5)CC4)cc3-c3ccccc3)cc2)CCC1 (stereo not shown)	IC50	2900
CC(=O)N(C)[C@H]1CC[C@H](CC(=O)Nc2cnc(-c3ccc([C@H](C)N)cc3)c(-c3ccccc3)c2)CC1	IC50	10000
COC(=O)N(C)[C@H]1CC[C@H](CC(=O)Nc2cc(-c3ccccc3F)c(-c3ccc(C4(N)CCC4)cc3)cn2)CC1	IC50	6100

Hi, could you look up IC50 for each item in my list?
1. CCN(C(=O)OC)[C@H]1CC[C@H](CC(=O)Nc2cc(-c3ccccc3)c(-c3ccc([C@]4(N)C[C@](C)(O)C4)cc3)nn2)CC1
2. CC(=O)N(C)[C@H]1CC[C@H](CC(=O)Nc2cnc(-c3ccc(C4(N)CC(C)(O)C4)c(F)c3)c(-c3ccccc3)c2)CC1 (stereo partly shown)
3. CC(=O)N[C@H]1CC[C@H](C(C)C(=O)Nc2cnc(-c3ccc(C4(N)CCC4)cc3)c(-c3ccccc3)c2)CC1 (relative stereo)
4. CC(=O)N(C(C)C)[C@H]1CC[C@H](CC(=O)Nc2cnc(-c3ccc(C4(N)CCC4)cc3)c(-c3ccccc3)c2)CC1
5. NC1(c2ccc(-c3cnc(NC(=O)C[C@H]4CC[C@H](N5CCCC5=O)CC4)cc3-c3ccccc3)cc2)CCC1
6. COC(=O)N(C)[C@H]1CC[C@H](CC(=O)Nc2cnc(-c3ccc([C@]4(N)C[C@](C)(O)C4)cc3)c(-c3ccccc3)c2)CC1

Result string:
1: 620; 2: 2400; 3: 1500; 4: 2900; 5: 1500; 6: 350

Hi, could you look up IC50 for each item in my list?
1. CC(C)(N)c1ccc(-c2ncc(NC(=O)C[C@H]3CC[C@H](C(=O)N4CCCC4)CC3)cc2-c2ccccc2)cc1
2. N[C@]1(c2ccc(-c3cnc(NC(=O)C[C@H]4CC[C@H](N5CCOC5=O)CC4)cc3-c3ccccc3)cc2)C[C@@H](F)C1

Result string:
1. 11000
2. 5400

====

Please respond with reported IC50 for every item in the list.
target: p-Akt3 in WM115 cells (Homo sapiens); construct: SureFire assays to detect cellular p-Akt1, p-Akt2 and p-Akt3 levels in WM115 cells (Akt2/3) and LNCaP cells (Akt1); endogenous in cells; host or cells: WM115 (ECACC 91061232), insulin-stimulated; assay: Phospho-Akt cellular SureFire assay, p-Akt3 in WM115 cells; type: cell-based; details: insulin stimulated, read-out: Biological Assay 2 IC50 (nM) Akt3 WM115
Sequence (Q9Y243 whole entry): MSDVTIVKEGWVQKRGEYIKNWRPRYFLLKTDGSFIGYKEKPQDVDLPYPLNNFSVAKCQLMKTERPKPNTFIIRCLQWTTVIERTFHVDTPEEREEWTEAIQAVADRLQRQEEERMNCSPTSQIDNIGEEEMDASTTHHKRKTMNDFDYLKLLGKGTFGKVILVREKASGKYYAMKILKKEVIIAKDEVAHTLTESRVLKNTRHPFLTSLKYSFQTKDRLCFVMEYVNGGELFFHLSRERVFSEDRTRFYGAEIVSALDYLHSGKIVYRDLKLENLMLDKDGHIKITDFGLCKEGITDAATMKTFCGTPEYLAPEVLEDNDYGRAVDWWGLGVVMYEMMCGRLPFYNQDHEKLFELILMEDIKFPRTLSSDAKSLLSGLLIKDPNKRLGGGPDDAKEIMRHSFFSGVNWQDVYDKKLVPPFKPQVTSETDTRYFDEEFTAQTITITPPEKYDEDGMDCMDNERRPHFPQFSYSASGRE
Numbers only, in nM.

Some solved entries appear below for comparison.
MOLECULE	IC50 / nM
COC(=O)N(C)C1CCC(CC(=O)Nc2cnc(-c3ccc(C4(N)CC(F)C4)cc3)c(-c3ccsc3)c2)CC1 (stereo not drawn)	420
CC(C)C(=O)N(C)[C@H]1CC[C@H](CC(=O)Nc2cc(-c3ccccc3)c(-c3ccc([C@]4(N)C[C@](C)(O)C4)cc3)nn2)CC1	10
COC(=O)N(C)[C@H]1CC[C@H](CC(=O)Nc2cc(-c3ccsc3)c(-c3ccc(C4(N)CC4)c(F)c3)nn2)CC1	1400
CCC(=O)N(C)[C@H]1CC[C@H](CC(=O)Nc2cc(-c3ccccc3)c(-c3ccc(C4(N)CC4)cc3)nn2)CC1	90
NC1(c2ccc(-c3nnc(NC(=O)C[C@H]4CC[C@H](N5CCOC5=O)CC4)cc3-c3ccccc3)cc2)CCC1	48

Consider now this further molecule.
Query string: Query for p-Akt3 in WM115 cells (Homo sapiens): what IC50 does the record show for COC(=O)N[C@H]1CC[C@H](CC(=O)Nc2cnc(-c3ccc(C4(N)CC(F)(F)C4)cc3)c(-c3ccccc3)c2)CC1 ?
Result string: 440

====

molecular target: p-Akt1 in LNCaP cells (Homo sapiens); construct: SureFire assays to detect cellular p-Akt1, p-Akt2 and p-Akt3 levels in WM115 cells (Akt2/3) and LNCaP cells (Akt1); endogenous in cells; host or cells: LNCaP (ECACC 89110211); assay: Phospho-Akt cellular SureFire assay, p-Akt1 in LNCaP cells; type: cell-based; conditions: read-out: Biological Assay 2 IC50 (nM) Akt1 LNCaP
Sequence (P31749 whole entry): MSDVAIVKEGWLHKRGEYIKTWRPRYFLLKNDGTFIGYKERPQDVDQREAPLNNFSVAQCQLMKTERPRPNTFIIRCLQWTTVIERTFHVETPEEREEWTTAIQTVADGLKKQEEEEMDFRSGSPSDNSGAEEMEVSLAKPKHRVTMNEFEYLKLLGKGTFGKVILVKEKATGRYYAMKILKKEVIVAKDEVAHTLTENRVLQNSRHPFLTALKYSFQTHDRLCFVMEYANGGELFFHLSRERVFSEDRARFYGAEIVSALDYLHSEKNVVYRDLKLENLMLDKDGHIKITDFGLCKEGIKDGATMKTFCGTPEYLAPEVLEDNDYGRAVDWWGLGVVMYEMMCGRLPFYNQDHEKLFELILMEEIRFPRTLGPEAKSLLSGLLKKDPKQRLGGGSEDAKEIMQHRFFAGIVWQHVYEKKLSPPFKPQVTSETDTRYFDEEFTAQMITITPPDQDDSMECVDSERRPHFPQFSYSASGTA
PARAMETER: IC50

SMILES NOTATION	IC50
CC(=O)N(C(C)C)[C@H]1CC[C@H](CC(=O)Nc2cnc(-c3ccc(C(C)(C)N)cc3)c(-c3ccccc3)c2)CC1	> 30000 nM

Hi, could you look up IC50 for each item in my list?
1. COC(=O)N(C)[C@H]1CC[C@H](CC(=O)Nc2cc(-c3ccccc3)c(-c3ccc([C@]4(N)C[C@](C)(O)C4)cc3)nn2)CC1
2. NC1(c2ccc(-c3cnc(NC(=O)C[C@H]4CC[C@H](N5CCOC5=O)CC4)cc3-c3ccsc3)cc2)CCC1

Result string:
["1600 nM", "> 30000 nM"]
